FYI, the data here is from patent US20260317324A1.

Biological target: BRAF G469A (Homo sapiens, UniProt P15056, G469A)
Construct: Horizon Discovery (HCT-116 BRAF−/− cells); host or cells: HCT-116 BRAF−/− cells, clone 34, lentiviral transduction
Sequence (P15056 whole entry G469A): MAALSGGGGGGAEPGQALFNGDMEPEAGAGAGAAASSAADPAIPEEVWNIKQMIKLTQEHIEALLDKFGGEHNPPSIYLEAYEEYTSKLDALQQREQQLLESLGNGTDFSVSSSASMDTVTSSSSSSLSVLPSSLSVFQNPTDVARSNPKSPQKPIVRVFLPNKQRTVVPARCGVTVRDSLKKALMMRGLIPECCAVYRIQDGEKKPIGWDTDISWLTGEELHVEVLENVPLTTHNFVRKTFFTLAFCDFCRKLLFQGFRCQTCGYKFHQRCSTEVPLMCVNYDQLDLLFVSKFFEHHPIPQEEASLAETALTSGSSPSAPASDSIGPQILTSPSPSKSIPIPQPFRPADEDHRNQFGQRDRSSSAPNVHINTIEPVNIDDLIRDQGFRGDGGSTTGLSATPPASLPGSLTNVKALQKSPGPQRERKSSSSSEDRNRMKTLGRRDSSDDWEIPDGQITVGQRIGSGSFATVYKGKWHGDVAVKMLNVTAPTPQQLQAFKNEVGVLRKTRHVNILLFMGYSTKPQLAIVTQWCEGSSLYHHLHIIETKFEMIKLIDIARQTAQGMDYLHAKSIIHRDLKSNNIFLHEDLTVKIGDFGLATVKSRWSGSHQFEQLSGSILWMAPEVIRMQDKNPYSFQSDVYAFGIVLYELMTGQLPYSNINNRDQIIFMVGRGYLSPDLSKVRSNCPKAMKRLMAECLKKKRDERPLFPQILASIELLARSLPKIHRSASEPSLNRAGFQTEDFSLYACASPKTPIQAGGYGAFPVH
Assay: BRAF HiBiT degradation assay, C-terminal HiBiT-tagged BRAF G469A overexpressed in HCT-116 BRAF−/− cells (clone 34), Nano-Glo HiBiT Lytic assay
Type: cell-based
Conditions: BRAF G469A (Class 2), HCT-116 BRAF−/− cells; DC50 at 50% degradation
outcome_measure: DC50

Worked cases, DC50 given:
CCCS(=O)(=O)Nc1cccc(-c2nc(C3CCC4(CC3)CCN(C(=O)C3CCN(c5cccc6c5n(C)c(=O)n6C5CCC(=O)NC5=O)CC3)CC4)sc2-c2ccnc(N)n2)c1F (racemic) :: > 500 nM
C[C@@H]1CN(c2ccc(-n3cc(-c4cc(Cl)cc(NS(=O)(=O)N5CCCC5)c4F)c(-c4ccncc4)n3)nc2)CCN1CC1CCN(c2ccc([C@H]3CCC(=O)NC3=O)cn2)CC1 :: 10 to 50 nM
CCCS(=O)(=O)Nc1cccc(-c2cn(-c3ccc(N4CCN(CC5CCN(c6ccc([C@H]7CCC(=O)NC7=O)cc6)CC5)[C@H](C)C4)cc3)nc2-c2ccncc2)c1F :: > 500 nM

The molecule listed as CCCS(=O)(=O)Nc1cc(Cl)cc(-c2cn(-c3ccc(N4CCN(CC5CCN(c6ccc([C@H]7CCC(=O)NC7=O)cc6)CC5)[C@H](C)C4)cc3)nc2-c2ccncc2)c1F has a reported DC50 of 10 to 50 nM

The molecule listed as O=C1CCC(c2ccc(N3CCC(CN4CCN(c5ccc(-n6cc(-c7cc(Cl)cc(NS(=O)(=O)N8CCCC8)c7F)c(-c7ccncc7)n6)cc5)CC4)CC3)c(F)c2)C(=O)N1 (racemic) has a reported DC50 of 10 to 50 nM

###

Biological target: BRAF V600E (Homo sapiens, UniProt P15056, V600E)
Construct: endogenous C-terminal HiBiT fusion tag on BRAF V600E allele; endogenous in cells; host or cells: A375 clone 1F10 (CRISPR-Cas9 knock-in of the HiBiT tag; parental A375 from ATCC)
Sequence (P15056 whole entry V600E, the tested form may be a part): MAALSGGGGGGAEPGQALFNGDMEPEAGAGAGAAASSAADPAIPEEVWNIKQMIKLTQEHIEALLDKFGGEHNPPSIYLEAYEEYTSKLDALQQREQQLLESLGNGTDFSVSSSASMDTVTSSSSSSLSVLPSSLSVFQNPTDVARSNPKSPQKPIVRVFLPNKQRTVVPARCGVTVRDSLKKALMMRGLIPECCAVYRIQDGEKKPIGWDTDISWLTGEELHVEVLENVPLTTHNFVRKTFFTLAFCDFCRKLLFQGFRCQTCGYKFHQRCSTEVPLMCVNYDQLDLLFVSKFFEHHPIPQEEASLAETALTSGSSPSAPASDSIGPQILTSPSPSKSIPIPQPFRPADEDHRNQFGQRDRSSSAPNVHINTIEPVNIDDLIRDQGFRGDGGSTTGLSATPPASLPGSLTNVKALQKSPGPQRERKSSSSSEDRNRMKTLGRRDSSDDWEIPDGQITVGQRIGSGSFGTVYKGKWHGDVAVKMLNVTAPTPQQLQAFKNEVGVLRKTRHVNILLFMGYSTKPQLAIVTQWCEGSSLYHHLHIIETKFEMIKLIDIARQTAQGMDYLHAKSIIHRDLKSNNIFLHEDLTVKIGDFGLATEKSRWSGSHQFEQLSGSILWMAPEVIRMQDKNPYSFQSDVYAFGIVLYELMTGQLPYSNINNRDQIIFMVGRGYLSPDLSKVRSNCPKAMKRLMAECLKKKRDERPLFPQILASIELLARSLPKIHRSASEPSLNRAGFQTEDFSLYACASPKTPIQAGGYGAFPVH
Experiment: BRAF HiBiT degradation assay, C-terminal HiBiT-tagged BRAF V600E A375 cells (clone 1F10), Nano-Glo HiBiT Lytic assay
Type: cell-based
Settings: A375 (BRAF V600E); DC50 at 50%: fitted conc. at Y=50
Procedure: An A375 cell line expressing a homozygous V600E mutation was purchased from ATCC (Manassas, VA, USA). […] HiBiT signal was measured by a Nano-Glo HiBiT Lytic assay (Promega cat. no. N3050). […] Luminesce units (LU) were read on an EnVision plate reader 2105 (Perkin Elmer). Percent protein remaining and viability remaining per sample were calculated as follows: […]
outcome_measure: DC50

CCCS(=O)(=O)Nc1cccc(-c2nc(C(C)(C)C)sc2-c2ccnc(Nc3ccc4c(c3)CCN(C(=O)CN3CCC(c5ccc(NC6CCC(=O)NC6=O)cc5)CC3)C4)n2)c1F (racemic) [Compound 123] :: 10 to 50 nM
CCCS(=O)(=O)Nc1cccc(-c2nc(C(C)(C)C)sc2-c2ccnc(NC3CC4(C3)CN(C(=O)CN3CCC5(CC3)CN(c3ccc6c(c3)C(=O)N(C3CCC(=O)NC3=O)C6=O)C5)C4)n2)c1F (racemic) [Compound 152] :: 10 to 50 nM
CCCS(=O)(=O)Nc1cccc(-c2cn(-c3ccc(N4CCN(CC5CCN(c6ccc(C7CCC(=O)NC7=O)c(F)c6)CC5)CC4)cc3)nc2-c2ccncc2)c1F (racemic) [Compound 19] :: 10 to 50 nM
CCCS(=O)(=O)Nc1cccc(-c2nc(C3CCN(C(=O)C4(C)CCN(C(=O)C5CCN(c6ccc(C7CCC(=O)NC7=O)cn6)CC5)CC4)CC3)sc2-c2ccncn2)c1F (racemic) [Compound 181] :: < 10 nM

Now examine the next entry.
The compound listed as CCN(C)S(=O)(=O)Nc1cccc(-c2nc(C(C)(C)C)sc2-c2ccnc(Nc3ccc(N4CCN(CC5CCN(c6ccc([C@@H]7CCC(=O)NC7=O)cc6)CC5)CC4)cn3)n2)c1F [Compound 127] has a reported DC50 of 10 to 50 nM

###

Reported Dmax is given for each of the following compounds.
Target: BRAF G466V (Homo sapiens, UniProt P15056, G466V)
Construct: Horizon Discovery (HCT-116 BRAF−/− cells); host or cells: HCT-116 BRAF−/− cells, clone 8, lentiviral transduction
Sequence (P15056 whole entry G466V): as the sequence (P15056 whole entry V600E, the tested form may be a part) above, with G466V, E600V counted along it
Experiment: BRAF HiBiT degradation assay, C-terminal HiBiT-tagged BRAF G466V overexpressed in HCT-116 BRAF−/− cells (clone 8), Nano-Glo HiBiT Lytic assay
Assay type: cell-based
Details: BRAF G466V (Class 3), HCT-116 BRAF−/− cells; observed Dmax relative to DMSO control

CCCS(=O)(=O)Nc1cccc(-c2nc(C3CCC4(CC3)CN(C(=O)CC3CCN(C5CCN(c6ccc7c(c6)C(=O)N(C6CCC(=O)NC6=O)C7=O)CC5)CC3)C4)sc2-c2ccnc(N)n2)c1F (racemic) :: 30 to 70%

The compound listed as CCN(C)S(=O)(=O)Nc1cccc(-c2cn(-c3ccc(N4CCN(CC5CCN(c6ccc([C@@H]7CCC(=O)NC7=O)cn6)CC5)CC4)c(F)c3)nc2-c2ccncc2)c1F has a reported Dmax of 30 to 70%

The compound listed as O=C1CC[C@H](c2ccc(N3CCC(CN4CCN(c5ccc(-n6cc(-c7cc(Cl)cc(NS(=O)(=O)N8CCCC8)c7F)c(-c7ccncc7)n6)c(F)c5)CC4)CC3)cc2)C(=O)N1 has a reported Dmax of > 70%

The compound listed as O=C1CCN(c2ccc(N3CCC(CN4CCN(c5ccc(-n6cc(-c7cc(Cl)cc(NS(=O)(=O)N8CCCC8)c7F)c(-c7ccncc7)n6)nc5)CC4)CC3)cc2)C(=O)N1 has a reported Dmax of 30 to 70%

The compound listed as O=C1CCN(c2ccc(N3CCC(CN4CCN(c5ccc(-n6cc(-c7cc(Cl)cc(NS(=O)(=O)N8CC[C@@H](F)C8)c7F)c(-c7ccncc7)n6)cc5)CC4)CC3)nc2)C(=O)N1 has a reported Dmax of > 70%

The compound listed as O=C1CCN(c2ccc(N3CCC(CN4CCN(c5cnc(-n6cc(-c7cc(Cl)cc(NS(=O)(=O)N8CCCC8)c7F)c(-c7ccncc7)n6)nc5)CC4)CC3)cc2)C(=O)N1 has a reported Dmax of 30 to 70%

The compound listed as C[C@@H]1CN(c2ccc(-n3cc(-c4cc(Cl)cc(NS(=O)(=O)N5CC[C@@H](F)C5)c4F)c(-c4ccncc4)n3)nc2)CCN1CC1CCN(c2ccc(N3CCC(=O)NC3=O)cc2)CC1 has a reported Dmax of 30 to 70%

The compound listed as O=C1CCC(c2ccc(N3CCC(CN4CCN(c5ccc(-n6cc(-c7cc(Cl)cc(NS(=O)(=O)N8CCCC8)c7F)c(-c7ccncc7)n6)cc5F)CC4)CC3)nc2)C(=O)N1 (racemic) has a reported Dmax of > 70%

The compound listed as O=C1CCN(c2ccc(N3CCC(CN4CCN(c5ccc(-n6cc(-c7cc(Cl)cc(NS(=O)(=O)N8CCCC8)c7F)c(-c7ccncc7)n6)cc5)CC4)CC3)nc2)C(=O)N1 has a reported Dmax of > 70%

The compound listed as O=C1CCC(c2ccc(N3CCC(CN4CCN(c5ccc(-n6cc(-c7cc(Cl)cc(NS(=O)(=O)N8CC(F)C8)c7F)c(-c7ccncc7)n6)c(F)c5)CC4)CC3)nc2)C(=O)N1 (racemic) has a reported Dmax of > 70%

The compound listed as O=C1CCN(c2ccc(N3CCC(CN4CCN(c5ccc(-n6cc(-c7cc(Cl)cc(NS(=O)(=O)C8CCCC8)c7F)c(-c7ccncc7)n6)cc5)CC4)CC3)nc2)C(=O)N1 has a reported Dmax of > 70%

The compound listed as O=C1CC[C@H](c2ccc(N3CCC(CN4CCN(c5ccc(-n6cc(-c7cc(Cl)cc(NS(=O)(=O)N8CCCC8)c7F)c(-c7ccncc7)n6)cc5F)CC4)CC3)cc2)C(=O)N1 has a reported Dmax of > 70%

The compound listed as O=C1CCC(c2ccc(N3CCC(CN4CCN(c5ccc(-n6cc(-c7cc(C(F)F)cc(NS(=O)(=O)N8CCCC8)c7F)c(-c7ccncc7)n6)c(F)c5)CC4)CC3)nc2)C(=O)N1 (racemic) has a reported Dmax of > 70%

###

Reported DC50 is given for each of the following compounds.
Biological target: BRAF G466V (Homo sapiens, UniProt P15056, G466V)
Construct: Horizon Discovery (HCT-116 BRAF−/− cells); host or cells: HCT-116 BRAF−/− cells, clone 8, lentiviral transduction
Test: BRAF HiBiT degradation assay, C-terminal HiBiT-tagged BRAF G466V overexpressed in HCT-116 BRAF−/− cells (clone 8), Nano-Glo HiBiT Lytic assay
Assay type: cell-based
Conditions: BRAF G466V; DC50 at 50%: fitted conc. at Y=50

CCCS(=O)(=O)Nc1cccc(-c2cn(-c3ccc(N4CCN(CC5CCN(c6ccc([C@H]7CCC(=O)NC7=O)cn6)CC5)CC4)cc3)nc2-c2ccncc2)c1F :: 10 to 50 nM

The compound listed as CCCS(=O)(=O)Nc1cccc(-c2nc(C(C)(C)C)sc2-c2ccnc(Nc3ccc(N4CCN(C(=O)CC5CCN(c6ccc(NC7CCC(=O)NC7=O)cc6)CC5)CC4)c(F)c3)n2)c1F (racemic) has a reported DC50 of < 10 nM

The compound listed as CCCS(=O)(=O)Nc1cccc(-c2nc(C(C)(C)C)sc2-c2ccnc(Nc3ccc(N4CCN(C(=O)CC5(O)CCN(c6ccc(NC7CCC(=O)NC7=O)cc6F)CC5)CC4)c(F)c3)n2)c1F (racemic) has a reported DC50 of > 500 nM

The compound listed as CCCS(=O)(=O)Nc1cccc(-c2nc(C(C)(C)C)sc2-c2ccnc(NC3CC4(CCN(CC5CCN(c6ccc7c(=O)n(C8CCC(=O)NC8=O)ccc7c6)CC5)CC4)C3)n2)c1F (racemic) has a reported DC50 of > 500 nM

The compound listed as CCN(C)S(=O)(=O)Nc1cccc(-c2nc(C(C)(C)C)sc2-c2ccnc(Nc3ccc(N4CCN(C(=O)C5CCN(c6ccc(C7CCC(=O)NC7=O)cc6)CC5)CC4)cn3)n2)c1F (racemic) has a reported DC50 of > 500 nM
